Assay: Inhibition of APH(2\")-1a (unknown origin)
Active and inactive are the calls of the source. The calls are words filed in the database; no cut-off is given here.
Metric: inhibition

INSERT INTO measurements (structure_as_smiles, obs_value) VALUES
  ('NC[C@@H]1O[C@H](O[C@H]2[C@@H](O)[C@H](O[C@@H]3[C@@H](O)[C@H](N)C[C@H](N)[C@H]3O[C@H]3O[C@H](CN)[C@@H](O)[C@H](O)[C@H]3N)O[C@@H]2CNC(=O)CCCc2ccc3ccc4cccc5ccc2c3c45)[C@H](N)[C@@H](O)[C@@H]1O', 'Active'),
  ('NC[C@@H]1O[C@H](O[C@H]2[C@@H](O)[C@H](O[C@@H]3[C@@H](O)[C@H](N)C[C@H](N)[C@H]3O[C@H]3O[C@H](CN)[C@@H](O)[C@H](O)[C@H]3N)O[C@@H]2CNC(=O)CCc2ccc3ccc4cccc5ccc2c3c45)[C@H](N)[C@@H](O)[C@@H]1O', 'Active');

---

Assay: Inhibition of AAC(3)-4 (unknown origin)
Activity calls are given as the source filed them. No cut-off for these calls is given here.
Metric: inhibition

INSERT INTO results (structure_as_smiles, obs_value) VALUES
  ('NC[C@@H]1O[C@H](O[C@H]2[C@@H](O)[C@H](O[C@@H]3[C@@H](O)[C@H](N)C[C@H](N)[C@H]3O[C@H]3O[C@H](CN)[C@@H](O)[C@H](O)[C@H]3N)O[C@@H]2CNC(=O)CCc2ccc3ccc4cccc5ccc2c3c45)[C@H](N)[C@@H](O)[C@@H]1O', 'Active'),
  ('NC[C@@H]1O[C@H](O[C@H]2[C@@H](O)[C@H](O[C@@H]3[C@@H](O)[C@H](N)C[C@H](N)[C@H]3O[C@H]3O[C@H](CN)[C@@H](O)[C@H](O)[C@H]3N)O[C@@H]2CNC(=O)CCCc2ccc3ccc4cccc5ccc2c3c45)[C@H](N)[C@@H](O)[C@@H]1O', 'Active'),
  ('NC[C@@H]1O[C@H](O[C@H]2[C@@H](O)[C@H](O[C@@H]3[C@@H](O)[C@H](N)C[C@H](N)[C@H]3O[C@H]3O[C@H](CN)[C@@H](O)[C@H](O)[C@H]3N)O[C@@H]2CNC(=O)Cc2ccc3ccc4cccc5ccc2c3c45)[C@H](N)[C@@H](O)[C@@H]1O', 'Active');

---

Assay: Inhibition of AAC(6')-1e (unknown origin)
Active and inactive are the calls of the source. No cut-off for these calls is given here.
Outcomes: 1 (yes) = active, 0 (no) = inactive

INSERT INTO measurements (structure_as_smiles, assigned_category) VALUES
  ('NC[C@@H]1O[C@H](O[C@H]2[C@@H](O)[C@H](O[C@@H]3[C@@H](O)[C@H](N)C[C@H](N)[C@H]3O[C@H]3O[C@H](CN)[C@@H](O)[C@H](O)[C@H]3N)O[C@@H]2CSCCNC(=S)NCCCCCCNC(=O)CCCc2ccc3ccc4cccc5ccc2c3c45)[C@H](N)[C@@H](O)[C@@H]1O', '1 (yes)'),
  ('NC[C@@H]1O[C@H](O[C@H]2[C@@H](O)[C@H](O[C@@H]3[C@@H](O)[C@H](N)C[C@H](N)[C@H]3O[C@H]3O[C@H](CN)[C@@H](O)[C@H](O)[C@H]3N)O[C@@H]2CSCCNC(=O)Cc2ccc3ccc4cccc5ccc2c3c45)[C@H](N)[C@@H](O)[C@@H]1O', '1 (yes)'),
  ('NC[C@@H]1O[C@H](O[C@H]2[C@@H](O)[C@H](O[C@@H]3[C@@H](O)[C@H](N)C[C@H](N)[C@H]3O[C@H]3O[C@H](CN)[C@@H](O)[C@H](O)[C@H]3N)O[C@@H]2CNC(=O)CCc2ccc3ccc4cccc5ccc2c3c45)[C@H](N)[C@@H](O)[C@@H]1O', '1 (yes)'),
  ('NC[C@@H]1O[C@H](O[C@H]2[C@@H](O)[C@H](O[C@@H]3[C@@H](O)[C@H](N)C[C@H](N)[C@H]3O[C@H]3O[C@H](CN)[C@@H](O)[C@H](O)[C@H]3N)O[C@@H]2CSCCNC(=O)CCc2ccc3ccc4cccc5ccc2c3c45)[C@H](N)[C@@H](O)[C@@H]1O', '1 (yes)'),
  ('NC[C@@H]1O[C@H](O[C@H]2[C@@H](O)[C@H](O[C@@H]3[C@@H](O)[C@H](N)C[C@H](N)[C@H]3O[C@H]3O[C@H](CN)[C@@H](O)[C@H](O)[C@H]3N)O[C@@H]2CNC(=O)Cc2ccc3ccc4cccc5ccc2c3c45)[C@H](N)[C@@H](O)[C@@H]1O', '1 (yes)'),
  ('NC[C@@H]1O[C@H](O[C@H]2[C@@H](O)[C@H](O[C@@H]3[C@@H](O)[C@H](N)C[C@H](N)[C@H]3O[C@H]3O[C@H](CN)[C@@H](O)[C@H](O)[C@H]3N)O[C@@H]2CSCCNC(=O)CCCc2ccc3ccc4cccc5ccc2c3c45)[C@H](N)[C@@H](O)[C@@H]1O', '0 (no)'),
  ('NC[C@@H]1O[C@H](O[C@H]2[C@@H](O)[C@H](O[C@@H]3[C@@H](O)[C@H](N)C[C@H](N)[C@H]3O[C@H]3O[C@H](CN)[C@@H](O)[C@H](O)[C@H]3N)O[C@@H]2CNC(=O)CCCc2ccc3ccc4cccc5ccc2c3c45)[C@H](N)[C@@H](O)[C@@H]1O', '1 (yes)');

---

Tested on: Ribosomal RNA A-site
Test: Binding affinity to rRNA-A site in Escherichia coli S30 extract assessed as inhibition of protein translation after 20 mins
Assay type: nucleic-acid assay
Consider the following molecules and their measured IC50 readings.
Metric: IC50

INSERT INTO results (structure_as_smiles, metric, obs_value) VALUES
  ('NC[C@@H]1O[C@H](O[C@H]2[C@@H](O)[C@H](O[C@@H]3[C@@H](O)[C@H](N)C[C@H](N)[C@H]3O[C@H]3O[C@H](CN)[C@@H](O)[C@H](O)[C@H]3N)O[C@@H]2CSCCNC(=O)Cc2ccc3ccc4cccc5ccc2c3c45)[C@H](N)[C@@H](O)[C@@H]1O', 'IC50', '269 nM'),
  ('NC[C@@H]1O[C@H](O[C@H]2[C@@H](O)[C@H](O[C@@H]3[C@@H](O)[C@H](N)C[C@H](N)[C@H]3O[C@H]3O[C@H](CN)[C@@H](O)[C@H](O)[C@H]3N)O[C@@H]2CSCCNC(=O)CCCc2ccc3ccc4cccc5ccc2c3c45)[C@H](N)[C@@H](O)[C@@H]1O', 'IC50', '927 nM'),
  ('NC[C@@H]1O[C@H](O[C@H]2[C@@H](O)[C@H](O[C@@H]3[C@@H](O)[C@H](N)C[C@H](N)[C@H]3O[C@H]3O[C@H](CN)[C@@H](O)[C@H](O)[C@H]3N)O[C@@H]2CSCCNC(=S)NCCCCCCNC(=O)CCCc2ccc3ccc4cccc5ccc2c3c45)[C@H](N)[C@@H](O)[C@@H]1O', 'IC50', '213 nM'),
  ('NC[C@@H]1O[C@H](O[C@H]2[C@@H](O)[C@H](O[C@@H]3[C@@H](O)[C@H](N)C[C@H](N)[C@H]3O[C@H]3O[C@H](CN)[C@@H](O)[C@H](O)[C@H]3N)O[C@@H]2CNC(=O)Cc2ccc3ccc4cccc5ccc2c3c45)[C@H](N)[C@@H](O)[C@@H]1O', 'IC50', '1280 nM');

---

System: Staphylococcus aureus
Assay: Antibacterial activity against NEO-sensitive Staphylococcus aureus 25923 after 15 to 20 hrs by CLSI protocol based microdilution assay
Type: functional
Metric: MIC

INSERT INTO assay_data (structure_as_smiles, metric, obs_value) VALUES
  ('NC[C@@H]1O[C@H](O[C@H]2[C@@H](O)[C@H](O[C@@H]3[C@@H](O)[C@H](N)C[C@H](N)[C@H]3O[C@H]3O[C@H](CN)[C@@H](O)[C@H](O)[C@H]3N)O[C@@H]2CO)[C@H](N)[C@@H](O)[C@@H]1O', 'MIC', '1.56 µM'),
  ('NC[C@@H]1O[C@H](O[C@H]2[C@@H](O)[C@H](O[C@@H]3[C@@H](O)[C@H](N)C[C@H](N)[C@H]3O[C@H]3O[C@H](CN)[C@@H](O)[C@H](O)[C@H]3N)O[C@@H]2CSCCNC(=O)CCCc2ccc3ccc4cccc5ccc2c3c45)[C@H](N)[C@@H](O)[C@@H]1O', 'MIC', '12.5 µM'),
  ('NC[C@@H]1O[C@H](O[C@H]2[C@@H](O)[C@H](O[C@@H]3[C@@H](O)[C@H](N)C[C@H](N)[C@H]3O[C@H]3O[C@H](CN)[C@@H](O)[C@H](O)[C@H]3N)O[C@@H]2CNC(=O)CCCc2ccc3ccc4cccc5ccc2c3c45)[C@H](N)[C@@H](O)[C@@H]1O', 'MIC', '12.5 µM'),
  ('NC[C@@H]1O[C@H](O[C@H]2[C@@H](O)[C@H](O[C@@H]3[C@@H](O)[C@H](N)C[C@H](N)[C@H]3O[C@H]3O[C@H](CN)[C@@H](O)[C@H](O)[C@H]3N)O[C@@H]2CSCCNC(=S)NCCCCCCNC(=O)CCCc2ccc3ccc4cccc5ccc2c3c45)[C@H](N)[C@@H](O)[C@@H]1O', 'MIC', '6.25 µM');
